// data source = patent EP4745156A1

Each entry below carries its recorded pSTAT IC50 (µg/mL).
Biological target: His-tagged canine IL-31 (interleukin 31) recombinant protein (canine)
Test: cell-based or functional assay
Enter your answer as a number in µg/mL; do not include the unit.

Completed entries (count: 4):
The binder listed as B2-H1K3-canIgGB (antibody, V domains shown) VH: EVQLVESGGDLVKPGGSLRLSCVASGFTFSDAWMDWVRQAPGKGLQWLAEIRSRAESHATYYAESVKGRFTISRDDAKNTVYLQMNSLRAEDTAVYYCTPASTMITTGWFAYWGQGTLVTVSS VL: EIVMTQTPLSLSVSPGELATISCRASQNISVYLHWYQQKPGQAPKVLIKYVSQSISGVPSRFSGSGSGSDFTLTISSVEAEDVGVYYCQNGHSFPYTFGQGTKLEIKR has a reported pSTAT IC50 (µg/mL) of 9.3

The value of pSTAT IC50 (µg/mL) measured for the binder 7475-mHvKv-canIgGB (antibody, V domains shown) VH: EVKLVESGEGLVKPGGSLKLSCAASGFTFSSYAMSWVRQTPEKRLEWVAYISNGGDYIFYADTVKGRFTISRDNARNTLYLQMSSLKSEDTAMYYCTRRGHYNTSSYWYFDVWGTGTTVTVSS VL: DIVMTQSPKSMSMSVGERVTLSCKASENVGTYVSWYQQKPEQSPKLLIYGASNRYTGVPDRFTGSGSATDFTLTISSVQAEDLADYHCGQSYSYPPTFGAGTKLELKR turned out to be 6.7

For this binder ( B2-H1K1-canIgGB (antibody, V domains shown) VH: EVQLVESGGDLVKPGGSLRLSCVASGFTFSDAWMDWVRQAPGKGLQWLAEIRSRAESHATYYAESVKGRFTISRDDAKNTVYLQMNSLRAEDTAVYYCTPASTMITTGWFAYWGQGTLVTVSS VL: EIVMTQTPLSLAVTPGELATISCRASQNISVYLHWYLQKPGQTPRVLIKYVSQSISGVSDRFSGSGSGSDFTLKISRVEAEDVGVYYCQNGHSFPYTFGQGTKLEIKR ), measured pSTAT IC50 (µg/mL) is 9.4

Quick note, pSTAT IC50 (µg/mL) for 6465-H3K2-canIgGB (antibody, V domains shown) VH: EVQLVESGGDLVKPGGSLRLSCVASGYSFTNYYLYWVRQAPGKGLEWVAELNPRNGGTNLNAKFKTRFTISRDNAKNMAYLQMNSLRAEDTAVYYCTRGGTTVVVRDVMDFWGQGTLVTVSS VL: DIVLTQTPLSLSVSPGEPASISCRASESVDSYGNSFMHWYRQKPGQSPQLLIYRASNLESGVPDRFSGSGSRTDFTLRISRVEADDAGVYYCQQSNEDPYTFGQGTKLEIKR landed at 8.2

New cases:
B2-H2K3-canIgGB (antibody, V domains shown) VH: EVQLVESGGDLVKPGGSLRLSCVASGFTFSDAWMDWVRQAPGKGLEWVAEIRSRAESHATYYAESVKGRFTISRDDAKNMVYLQMNSLRAEDTAVYYCTPASTMITTGWFAYWGQGTLVTVSS VL: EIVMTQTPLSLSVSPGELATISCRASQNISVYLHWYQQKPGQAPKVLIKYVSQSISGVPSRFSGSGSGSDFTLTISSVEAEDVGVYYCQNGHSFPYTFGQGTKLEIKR has a reported pSTAT IC50 (µg/mL) of 7.1
